target: URAT1 (Homo sapiens (Human)); assay: URAT1-model assay, 14C-uric acid transport in HEK293/URAT1-model cells; conditions: 14C-uric acid 125 μM, 10 minutes at room temperature, read-out: URAT1 EC50 Activity Ranking
Sequence (Q96S37 whole entry, species assumed): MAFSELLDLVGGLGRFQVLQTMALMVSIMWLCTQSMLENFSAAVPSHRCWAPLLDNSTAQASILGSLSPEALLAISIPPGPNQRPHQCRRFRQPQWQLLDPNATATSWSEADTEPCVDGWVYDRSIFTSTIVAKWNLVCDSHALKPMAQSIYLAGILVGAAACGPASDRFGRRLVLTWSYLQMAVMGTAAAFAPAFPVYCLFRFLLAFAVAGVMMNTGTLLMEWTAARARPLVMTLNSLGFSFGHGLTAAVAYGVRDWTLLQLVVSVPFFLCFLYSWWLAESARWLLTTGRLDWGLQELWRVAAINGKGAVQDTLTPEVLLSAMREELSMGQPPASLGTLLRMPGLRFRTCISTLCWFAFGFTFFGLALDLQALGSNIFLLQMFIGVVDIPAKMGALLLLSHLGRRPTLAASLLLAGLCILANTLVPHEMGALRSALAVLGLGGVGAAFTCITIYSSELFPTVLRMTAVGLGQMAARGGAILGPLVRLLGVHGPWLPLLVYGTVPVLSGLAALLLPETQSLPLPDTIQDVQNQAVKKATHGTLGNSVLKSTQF
pEC50: −log10 of the molar value.
Recorded metric: pEC50

Example molecules with recorded pEC50:
Measured pEC50 of CC(C)(Sc1ccncc1-c1ccc(Cl)cc1)C(=O)O [Example 2P] : 7.30 to 9.00

pEC50 reported for this molecule CC(C)(Sc1ccncc1-c1cccc(C#N)c1)C(=O)O [Example 2TT] : 6.30 to 7.30

Per the records, this molecule ( CC(C)(Sc1ccncc1-c1ccncc1)C(=O)O [Example 2PP] ) has pEC50 equal to 7.30 to 9.00

---
Query CC(C)(Sc1ccncc1-c1ccc(C#N)c2ccccc12)C(=O)O [Example 2C] yields pEC50 of 7.30 to 9.00

Consider CC(C)(Sc1ccncc1-c1ccc(S(=O)(=O)NC2CC2)cc1)C(=O)O [Example 2D] . Its measured pEC50 is 6.30 to 7.30

Origin of measurements: patent US10919858B2
